# system_under_test: T1, Peptide-biotin
# T1 construct: also called antigen
# experiment: SPR Biacore 8K, purified IgG Fc-captured, Peptide-biotin analyte, 1:1 fit
assay_endpoint: koff (s⁻¹)
Answers are plain numbers, in s⁻¹.

Field: koff. Fill in for each record below.
1. humanized anti-TRPM4 antibody clone A4 (VH1 + VL3) (antibody, V domains shown, Full-length IgG, IgG1 heavy chain; also called VH1 + VL3 (A4)) VH: QVQLQESGPGLVKPSQTLSLTCTVSGYSITSDYAWNWIRQHPGKGLEWIGYLSYSGVTSYNPSLKGRVTISVDTSKNQFSLKLSSVTAADTAVYYCARKGTYYRYEGSYWYFDVWGQGTTVTVSS VL: DIQMTQSPSSLSASVGDRVTITCHANQNIDVWLSWYQQKPGNAPKLLIYKTSNLHTGVPSRFSGSGSGTDFTFTISSLQPEDIATYYCQQGQSYPLTFGGGTKLEIKR
2. humanized anti-TRPM4 antibody clone A6 (VH2 + VL1) (antibody, V domains shown, Full-length IgG, IgG1 heavy chain; also called VH2 + VL1 (A6)) VH: QVQLQESGPGLVKPSQTLSLTCTVSGYSITSDYAWNWIRQHPGKGLEWMGYLSYSGVTSYNPSLKGRVTISRDTSKNQFSLKLSSVTAADTAVYYCARKGTYYRYEGSYWYFDVWGQGTTVTVSS VL: DIQMTQSPSSLSASVGDRVTITCHANQNIDVWLSWYQQKPGKAPKLLIYKTSNLHTGVPSRFSGSGSGTDFTFTISSLQPEDIATYYCQQGQSYPLTFGGGTKLEIKR
3. anti-TRPM4 chimeric antibody clone A1 (VH + VL) (antibody, V domains shown, also called VH + VL (A1)) VH: QVQLQESGPGLVKPSQSLSLTCTVTGYSITSDYAWNWIRQFPGNKLQWMGYLSYSGVTSYNPSLKGRISITRDTSKNQFFLQLSSVTPEDTATYYCARKGTYYRYEGSYWYFDVWGAGTTVTVSS VL: DIQMNQSPSSLSASLGDTITITCHANQNIDVWLSWYQQKPGNVPKLLIYKTSNLHTGVPSRFSGSGSGTDFTLTISSLQPEDIATYYCQQGQSYPLTFGGGTKLEIK
4. humanized anti-TRPM4 antibody clone A2 (VH1 + VL1) (antibody, human IgG1, kappa, V domains shown, also called VH1 + VL1 (A2)) VH: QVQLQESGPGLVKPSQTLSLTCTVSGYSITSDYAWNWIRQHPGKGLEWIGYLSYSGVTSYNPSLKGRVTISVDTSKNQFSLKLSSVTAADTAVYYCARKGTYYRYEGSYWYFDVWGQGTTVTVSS VL: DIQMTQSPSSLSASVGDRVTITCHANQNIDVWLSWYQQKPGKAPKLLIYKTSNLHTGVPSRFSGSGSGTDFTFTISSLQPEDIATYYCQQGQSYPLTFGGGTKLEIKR

A:
[0.00062, 0.000662, 0.000543, 0.000605]

Data provenance: patent US20260209321A1
